Test system: NCI-H2023
Assay: relative viability (nuclei count vs DMSO), 5 days (fraction); higher = more cells survive
Conditions: first compound 0.3162 µM
List of relative viability values.
Measure name: relative viability

>>> val("O=c1cc(N2CCOCC2)oc2c(-c3cccc4c3sc3ccccc34)cccc12 + Nc1ncn([C@H]2C[C@H](O)[C@@H](CO)O2)c(=O)n1 [Decitabine] (partner 2 µM)")
0.251
>>> val("O=c1cc(N2CCOCC2)oc2c(-c3cccc4c3sc3ccccc34)cccc12 + COc1cc2c(Oc3ccc(NC(=O)C4(C(=O)Nc5ccc(F)cc5)CC4)cc3F)ccnc2cc1OCCCN1CCOCC1 [Foretinib] (partner 0.25 µM)")
0.873
>>> val("CCN(CC)CCCCNc1ncc2cc(-c3cc(OC)cc(OC)c3)c(NC(=O)NC(C)(C)C)nc2n1 + Cc1nc(NC(=O)N2CCC[C@H]2C(N)=O)sc1-c1ccnc(C(C)(C)C(F)(F)F)c1 [Alpelisib] (partner 2 µM)")
0.676
>>> val("O=c1cc(N2CCOCC2)oc2c(-c3cccc4c3sc3ccccc34)cccc12 + O=C(CCCCCCC(=O)Nc1ccccc1)NO [Vorinostat] (partner 1 µM)")
0.55
